Quick reference for remaining activity at 0.1 µM among some compounds
# Tested system: panel of 60 human kinases (Homo sapiens, UniProt P50750)
# Construct: purchased Reaction Biology Corp
# Sequence (P50750 whole entry): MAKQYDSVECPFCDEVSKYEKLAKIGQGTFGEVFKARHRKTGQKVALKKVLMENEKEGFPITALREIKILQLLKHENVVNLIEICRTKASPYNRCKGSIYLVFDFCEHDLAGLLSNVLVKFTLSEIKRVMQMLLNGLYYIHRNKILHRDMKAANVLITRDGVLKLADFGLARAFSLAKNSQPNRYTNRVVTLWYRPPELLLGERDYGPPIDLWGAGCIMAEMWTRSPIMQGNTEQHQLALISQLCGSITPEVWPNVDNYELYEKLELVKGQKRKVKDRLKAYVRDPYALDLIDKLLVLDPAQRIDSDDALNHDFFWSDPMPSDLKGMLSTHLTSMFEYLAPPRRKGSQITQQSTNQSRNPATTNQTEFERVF
# Test description: Radiolabeled ATP kinase assay, panel of 60 kinases (Table S5)
# Type: biochemical
# Test parameters: CDK9/cyclin T2; 0.1 μM; 10 μM ATP; read-out: % Enzyme Activity (relative to DSMO controls)
Just the number please, in %, no unit attached.

Compound: CN1CCN(Cc2ccc(-c3cnc4[nH]cc(-c5cccc(Cl)c5)c4c3)cc2)CC1
Measurement units: %
remaining activity at 0.1 µM: 95.2

### Prompt State the recorded remaining activity at 0.1 µM for this entry: `CN1CCN(Cc2ccc(-c3cnc4[nH]cc(-c5ccncc5)c4c3)cc2)CC1`
### Response 38.8

### Prompt State the recorded remaining activity at 0.1 µM for this entry: `CN1CCN(Cc2ccc(-c3cnc4[nH]cc(-c5ccc6c(c5)OCCO6)c4c3)cc2)CC1`
### Response 93.7

* * *

# Tested system: MLK1/MAP3K9 (Homo sapiens, UniProt P80192)
# Construct: purchased Reaction Biology Corp
# Sequence (P80192 whole entry): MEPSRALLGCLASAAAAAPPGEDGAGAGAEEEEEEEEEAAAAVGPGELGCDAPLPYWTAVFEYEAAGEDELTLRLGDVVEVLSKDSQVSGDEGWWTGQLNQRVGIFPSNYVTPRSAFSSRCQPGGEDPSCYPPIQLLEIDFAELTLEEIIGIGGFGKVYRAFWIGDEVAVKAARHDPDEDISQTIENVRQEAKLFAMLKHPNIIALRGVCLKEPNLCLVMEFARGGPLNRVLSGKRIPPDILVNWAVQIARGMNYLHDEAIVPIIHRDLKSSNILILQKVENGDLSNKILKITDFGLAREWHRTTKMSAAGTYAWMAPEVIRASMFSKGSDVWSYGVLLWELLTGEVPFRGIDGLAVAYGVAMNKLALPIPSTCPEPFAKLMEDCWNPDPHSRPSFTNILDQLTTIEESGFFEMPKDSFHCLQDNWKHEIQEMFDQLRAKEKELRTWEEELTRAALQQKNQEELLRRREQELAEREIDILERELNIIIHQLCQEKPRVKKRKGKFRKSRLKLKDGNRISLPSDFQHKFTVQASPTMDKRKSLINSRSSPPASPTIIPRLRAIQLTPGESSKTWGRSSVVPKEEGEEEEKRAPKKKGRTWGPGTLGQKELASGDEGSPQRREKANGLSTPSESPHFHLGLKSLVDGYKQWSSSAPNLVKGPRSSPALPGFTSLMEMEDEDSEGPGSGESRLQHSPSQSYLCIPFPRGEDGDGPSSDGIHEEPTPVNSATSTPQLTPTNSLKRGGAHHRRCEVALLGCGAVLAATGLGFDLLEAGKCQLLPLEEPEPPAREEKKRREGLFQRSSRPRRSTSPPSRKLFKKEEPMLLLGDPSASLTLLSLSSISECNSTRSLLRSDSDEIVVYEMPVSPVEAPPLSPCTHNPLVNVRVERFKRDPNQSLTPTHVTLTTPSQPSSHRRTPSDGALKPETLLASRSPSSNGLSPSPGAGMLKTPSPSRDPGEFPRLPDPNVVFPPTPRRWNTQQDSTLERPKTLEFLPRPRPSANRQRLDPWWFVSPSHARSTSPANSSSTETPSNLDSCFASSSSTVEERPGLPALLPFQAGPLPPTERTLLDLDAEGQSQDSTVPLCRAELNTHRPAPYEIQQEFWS
# Test description: Radiolabeled ATP kinase assay (Reaction Biology Corp.), MLK1
# Assay type: biochemical
# Test parameters: [Cmpd] 0.1 μM; 10 μM ATP; read-out: % Enzyme Activity Remaining (relative to DMSO controls), MLK1/MAP3K9, Data 1
Quick reference for remaining activity at 0.1 µM among some compounds

Compound: c1cc2cc(-c3c[nH]c4ncc(-c5ccc(CN6CC7CCC(C6)O7)cc5)cc34)ccc2[nH]1 [Compound 12a]
remaining activity at 0.1 µM: 56.2%
--
Compound: CC(C)Oc1ccc(-c2c[nH]c3ncc(-c4ccc(CN5CCN(C)CC5)cc4)cc23)cc1
remaining activity at 0.1 µM: 94.1%
--
Compound: CN1CCN(Cc2ccc(-c3cnc4[nH]cc(-c5cccc(OCc6ccccc6)c5)c4c3)cc2)CC1
remaining activity at 0.1 µM: 70.1%

### Prompt Query for MLK1/MAP3K9 (Homo sapiens, UniProt P80192): what remaining activity at 0.1 µM does the record show for `CN1CCN(Cc2ccc(-c3cnc4[nH]cc(-c5ccc(N)cc5)c4c3)cc2)CC1` ?
### Response 51.7%

### Prompt Query for MLK1/MAP3K9 (Homo sapiens, UniProt P80192): what remaining activity at 0.1 µM does the record show for `CN1CCN(Cc2ccc(-c3cnc4[nH]cc(-c5ccc(F)c(C(=O)O)c5)c4c3)cc2)CC1` ?
### Response 80.2%

### Prompt Query for MLK1/MAP3K9 (Homo sapiens, UniProt P80192): what remaining activity at 0.1 µM does the record show for `CN1CCN(Cc2ccc(-c3cnc4[nH]cc(-c5ccc6c(c5)OCCO6)c4c3)cc2)CC1` ?
### Response 25.6%

### Prompt Query for MLK1/MAP3K9 (Homo sapiens, UniProt P80192): what remaining activity at 0.1 µM does the record show for CN1CCN(Cc2ccc(-c3cnc4[nH]cc(-c5ccc6[nH]ccc6c5)c4c3)cc2)CC1 [Compound 1, reference compound] ?
### Response 16.2%

### Prompt Query for MLK1/MAP3K9 (Homo sapiens, UniProt P80192): what remaining activity at 0.1 µM does the record show for `CN1CCN(Cc2ccc(-c3cnc4[nH]cc(-c5ccc(C#N)cc5)c4c3)cc2)CC1` ?
### Response 93.4%

### Prompt Query for MLK1/MAP3K9 (Homo sapiens, UniProt P80192): what remaining activity at 0.1 µM does the record show for `CN1CCN(Cc2ccc(-c3cnc4[nH]cc(-c5cnc(N)nc5)c4c3)cc2)CC1` ?
### Response 69%

### Prompt Query for MLK1/MAP3K9 (Homo sapiens, UniProt P80192): what remaining activity at 0.1 µM does the record show for `CC(=O)c1ccc(-c2c[nH]c3ncc(-c4ccc(CN5CCN(C)CC5)cc4)cc23)cc1` ?
### Response 65.8%

### Prompt Query for MLK1/MAP3K9 (Homo sapiens, UniProt P80192): what remaining activity at 0.1 µM does the record show for `CN1CCN(Cc2ccc(-c3cnc4[nH]cc(-c5cc6ccccc6[nH]5)c4c3)cc2)CC1` ?
### Response 74.2%

### Prompt Query for MLK1/MAP3K9 (Homo sapiens, UniProt P80192): what remaining activity at 0.1 µM does the record show for `CN1CCN(Cc2ccc(-c3cnc4[nH]cc(-c5csc6ccccc56)c4c3)cc2)CC1` ?
### Response 81.1%

### Prompt Query for MLK1/MAP3K9 (Homo sapiens, UniProt P80192): what remaining activity at 0.1 µM does the record show for `CN1CCN(Cc2ccc(-c3cnc4[nH]cc(-c5cccc(C(=O)O)c5)c4c3)cc2)CC1` ?
### Response 77.7%

Reference for the values: patent US12227500B2
